Can you tell me GI50 for the items I'm about to list?
System: TK-10 renal
Assay: NCI tumour cell line growth inhibition, 48 h

- molecule: "NCCN.NCCN.O=C([O-])CCl.O=C([O-])CCl.[Co+3].[O-][Cl+3]([O-])([O-])[O-]"
  GI50: "> 100 µM"
- molecule: "CN(C)CC1C(=O)O[C@H]2[C@H]1CC/C(COC(=O)c1cc3ccccc3[nH]1)=C\\CC[C@@]1(C)O[C@@H]21 (stereo not given in full)"
  GI50: "2.04 µM"
- molecule: "C=C(C)[C@@H]1CC[C@]2(C)[C@H](CC=C3[C@@H]4[C@@H](C)[C@H](C)CC[C@]4(C(N)=O)CC[C@]32C)[C@@]1(C)CCC#N"
  GI50: "8.41 µM"
- molecule: "CNC(=O)CC1NC(=O)c2csc(n2)-c2ccc(-c3nc(C4=NC(C(=O)N5CCCC5C(N)=O)CO4)cs3)nc2-c2csc(n2)-c2csc(n2)C(C(C)C)NC(=O)CNC(=O)c2csc(n2)C(C(C)C)NC(=O)c2nc1sc2C (stereo not given)"
  GI50: "> 25 µM"

Field: next molecule
N#CC1=C(N)Oc2c(sc3c(Br)cccc23)C1c1ccc(Br)cc1 (stereo not given) has a reported GI50 of 0.986 µM

---

Tested on: SF-539 CNS
Test: NCI tumour cell line growth inhibition, 48 h
# if value of TGI reaches 10 µM, tag TRUE; if it stays below, tag FALSE

In: Threshold query (TGI >= 10 µM) on COC(=O)C(Cc1ccc(Oc2cc(CC(NC(=O)c3ccccc3)C(=O)OC)ccc2OC)cc1)NC(=O)c1ccccc1 (stereo unspecified)
Out: TRUE

In: Threshold query (TGI >= 10 µM) on O=C1C=CC[C@H](/C=C/c2ccccc2)O1
Out: FALSE

---

Can you tell me TGI for the items I'm about to list?
Tested on: COLO 205 colon
Experiment: NCI tumour cell line growth inhibition, 48 h
One number for each entry, in µM.

Quick batch: TGI for everything below.
1. O=C(c1ccccc1)C(Br)C(Br)c1cccc([N+](=O)[O-])c1 (centres undefined)
2. O=c1nc(NC(c2ccccc2)(c2ccccc2)c2ccccc2)ccn1CCNCCn1ccc(NC(c2ccccc2)(c2ccccc2)c2ccccc2)nc1=O
3. COc1cccc2c1C(=O)c1c(O)c3c(c(O)c1C2=O)C[C@@](O)(C(=O)CO)C[C@@H]3O[C@H]1C[C@H](N)[C@@H](O)[C@H](C)O1
4. Cc1cc2nc(N3C(=O)/C(=C/c4ccccc4S)N=C3c3ccccc3)sc2cc1C

Out:
1. 3.46
2. 35.6
3. 1.23
4. 98.5

---

Test system: TK-10 renal
Test: NCI tumour cell line growth inhibition, 48 h; in the data active = GI50 below about 0.43 µM; inactive = the rest
Your answer must be one of the following: True = active, False = inactive

- molecule: "Oc1ccccc1CNCC12CC3CC(CC(C3)C1)C2"
  class-assignment: "False"
- molecule: "O=C(Nc1ccc2[nH]c(=S)sc2c1)Nc1ccccc1F"
  class-assignment: "False"
- molecule: "CCN1Cc2c(ccc(F)c2C#N)O[C@@H](C)CNC(=O)c2c(N)nn3ccc1nc23"
  class-assignment: "False"

In: Can you look up the reported call for O=C(c1ccccc1)C(Br)C(Br)c1cccc([N+](=O)[O-])c1 (stereo not given) for me?
Out: False

In: Can you look up the reported call for COc1ccc(S(=O)(=O)Nc2cc(/C=C\c3cc(OC)c(OC)c(OC)c3)ccc2OC)cc1 for me?
Out: True

In: Can you look up the reported call for Clc1ccc2nnnn2n1 for me?
Out: False

---

System: HCT-15 colon
Test: NCI tumour cell line growth inhibition, 48 h; in the data active = GI50 below about 0.43 µM; inactive = the rest
Your answer must be one of the following: active, inactive

In: Can you look up the reported call for O=C(Nc1ccc2[nH]c(=S)sc2c1)Nc1ccccc1F for me?
Out: inactive

---

Test system: SK-MEL-28 melanoma
Assay: NCI tumour cell line growth inhibition, 48 h
outcome-measure: TGI

- molecule: "O=P1(c2ccccc2)C(c2ccccc2)=CC=C1c1ccccc1"
  result: "> 100 µM"
- molecule: "C[N+]1(C)C/C(=C\\c2ccccc2)C(=O)/C(=C/c2ccccc2)C1"
  result: "> 100 µM"
- molecule: "Nc1ccc(CCSSCCc2ccc(N)cc2)cc1"
  result: "> 78.6 µM"

Quick batch: TGI for everything below.
1. OC1[C@H](O)CN(OCc2ccccc2)C[C@@H]1O (some centres undefined)
2. O=C(c1ccccc1)C(Br)C(Br)c1cccc([N+](=O)[O-])c1 (centres undefined)
3. COC(=O)CCC1CCC(c2cc(F)ccc2F)(S(=O)(=O)c2ccc(Cl)cc2)CC1 (centres undefined)
4. CN(C)CCNC(=O)c1cccc2[nH]c(-c3cccnc3)nc12

Out:
> 100 µM
3.64 µM
> 100 µM
83.8 µM

Quick batch: TGI for everything below.
1. NC1CC(Cl)c2c(Cl)sc(Cl)c21 (centres undefined)
2. CCN(CC)c1c(-c2c(N(CC)CC)c(OC(C)=O)c3sccn3c2=O)c(=O)n2ccsc2c1OC(C)=O

Out:
1: > 100 µM; 2: > 100 µM

---

Can you tell me TGI for the items I'm about to list?
System: NCI/ADR-RES ovarian
Assay: NCI tumour cell line growth inhibition, 48 h
Give bare numbers, in µM.

- compound: "CCCCCCCCCCCCOC1C(C(COC2OC(C3COC(C)(C)O3)C3OC(C)(C)OC23)NC(=O)NS(=O)(=O)c2ccccc2)OC2OC(C)(C)OC21 (stereo not drawn)"
  TGI (µM): 23.6

Field: next compound
Cc1c(F)c(N)c2c(=O)cc(-c3ccc(N)c(F)c3)oc2c1F has a reported TGI of 42.4

---

Test system: SF-539 CNS
Experiment: NCI tumour cell line growth inhibition, 48 h
Can you tell me GI50 for the items I'm about to list?

- compound: "NC1=C(c2nc(-c3ccccc3)cs2)C(c2ccc(Br)cc2)c2c(c3ccccc3oc2=O)O1 (centres undefined)"
  result: "104 µg/mL"
- compound: "Oc1[nH]c2c(Br)cccc2c1C1=Nc2ccccc2/C1=N/OCCN1CCCC1"
  result: "0.557 µM"
- compound: "O=C1C=CC[C@H](/C=C/c2ccccc2)O1"
  result: "0.813 µM"
- compound: "COC(=O)CCC1CCC(c2cc(F)ccc2F)(S(=O)(=O)c2ccc(Cl)cc2)CC1 (centres undefined)"
  result: "> 100 µM"
- compound: "Cc1cc2[nH]c(=O)c3c4ccccc4cn3c2cc1C"
  result: "11.2 µM"

Quick batch: GI50 for everything below.
1. Cc1ccc2c(c1)C(C)Cc1c(Cl)ncnc1N2C (centres undefined)
2. S=c1ssc(Oc2ccccc2)c1Cl
3. COc1ccc(/C=C(\C#N)n2nnc3ccccc32)cc1
4. CCC[CH2][Sn]([CH2]CCC)([CH2]CCC)[O]C(=O)c1ccc(Cl)cc1Cl
5. COc1cc(/C=N/NC(=O)c2cnn3c2NC(c2ccccc2)C3)ccc1Oc1ccccc1 (centres undefined)
6. COC(=O)C1=C(C(=O)OC)SC(=C(Cl)C(=S)Nc2ccccc2O)S1
7. COc1ccccc1N1CCN(CCc2c[nH]c3cc4c(cc23)OCO4)CC1
8. CCN1C(=O)N(c2ccccc2)C2NC(=S)N(/N=C/C=C/c3ccccc3)C21 (centres undefined)

Out:
["3.85 µM", "17.3 µM", "0.252 µM", "0.172 µM", "1.03 µM", "15.9 µM", "20.2 µM", "0.246 µM"]

O=C(Nc1ccc2[nH]c(=S)sc2c1)Nc1ccccc1F has a reported GI50 of 29.6 µM

---

Tested on: NCI-H23 lung
Test: NCI tumour cell line growth inhibition, 48 h
Can you tell me TGI for the items I'm about to list?

Quick batch: TGI for everything below.
1. Cc1ccc(N2CCC3(CC2)OCCO3)cc1
2. CC(=O)N1C(NN(C)C)CCN1c1ccccc1 (centres undefined)
3. CC[C@@]1(OC(=O)CN)C(=O)OCc2c1cc1n(c2=O)Cc2cc3c(N)cccc3nc2-1
4. CC1(C)OC(CP(c2ccccc2)c2ccccc2)C(CP(c2ccccc2)c2ccccc2)O1 (centres undefined)
5. Cc1c(F)c(N)c2c(=O)cc(-c3ccc(N)c(F)c3)oc2c1F
6. COc1cccc(N2C(=O)/C(=C\c3ccccc3)SC2c2cc(OC)c(OC)c(OC)c2)c1 (centres undefined)
7. O=P1(c2ccccc2)C(c2ccccc2)=CC=C1c1ccccc1

Out:
1: > 100 µM; 2: > 10 µM; 3: 0.0765 µM; 4: > 22.5 µM; 5: 68.4 µM; 6: > 100 µM; 7: > 100 µM

---

Test system: EKVX NSCLC
Experiment: NCI tumour cell line growth inhibition, 48 h
outcome-measure: TGI

Quick batch: TGI for everything below.
1. COc1cc2c(cc1OCCCCCOc1ccc(-n3c(C)nc4ccccc4c3=O)cc1)N=C[C@@H]1CCCN1C2=O
2. COc1ccc(CC(=O)NCCc2ccc(OC)c(OC)c2)cc1Br
3. NC1CC(Cl)c2c(Cl)sc(Cl)c21 (stereo not given)
4. CN1CCCOC(c2ccc([N+](=O)[O-])cc2)O1 (stereo not given)
5. C1CSC(=[N+]2CC[N+](=C3SCCS3)CC2)S1
6. CC1=C(C)C1[N+](=O)[O-]
7. COc1cc([C@H]2CC(=O)C[C@H](c3cc(OC)c(OC)c(OC)c3)C23C(=O)c2ccccc2C3=O)cc(OC)c1OC
8. COC(=O)C1CCCN1C(=O)[C@@H]1CCCN1C(=O)[C@H](Cc1c[nH]c2ccccc12)NC(=S)Nc1cc(C(F)(F)F)cc(C(F)(F)F)c1 (stereo not given in full)

Out:
1: 4.77 µM; 2: > 100 µM; 3: > 100 µM; 4: > 100 µM; 5: > 100 µM; 6: > 100 µM; 7: > 100 µM; 8: 7.83 µM

Quick batch: TGI for everything below.
1. COc1ccc(/C=C(\C#N)n2nnc3ccccc32)cc1
2. COC(=O)c1c2c(cc3c1CC1(Cc4ccc(C(C)=O)cc4C1)C3)CCC2 (stereo not given)
3. CC1=NN(C(=O)CC(=O)NC(=O)CC(=O)Nc2ccccc2F)C(=O)C1N=Nc1ccc([N+](=O)[O-])cc1 (stereo not given)
4. Cc1cc(=O)[nH]c2cc3c(c4c(n3Cc3ccc(Cl)cc3Cl)CC(C)(C)CC4=O)c(O)c12
5. COc1cccc(OCCCN)c1-c1cc(Nc2cnc(C#N)cn2)n[nH]1
6. c1ccc2cc3[s+]snc3cc2c1

Out:
["> 100 µM", "> 100 µM", "96.2 µM", "> 100 µM", "45.6 µM", "> 100 µM"]

Quick batch: TGI for everything below.
1. Oc1[nH]c2c(Br)cccc2c1C1=Nc2ccccc2/C1=N/OCCN1CCCC1
2. Cc1ccc2nc(-c3ccccc3)c(N=O)n2c1
3. O=C(NCCCCCCNC(=O)OCCSCCn1cc(C(=O)NC(=O)OCc2ccccc2)c(=O)[nH]c1=O)OCCSCCn1cc(C(=O)NC(=O)OCc2ccccc2)c(=O)[nH]c1=O
4. O=[N+]([O-])c1cc2c(c([N+](=O)[O-])c1)NCc1ccccc1O2
5. COc1ccc(C2=NN(C(N)=S)C(c3ccccc3)C2)cc1 (stereo not given)
6. CC1OC(OC2C(OC(=O)[C@@H]3CC(C)(C)C[C@@H]4C5=CC[C@@H]6[C@@]7(C)C[C@H](O)[C@H](OC8OC(CO)C(O)C(O)C8O)[C@@](C)(CO)C7[C@H](O)C[C@@]6(C)[C@]5(C)C[C@@H](O)[C@H]43)OCC(O)C2O)C(O)C(O)C1O (stereo not given in full)
7. N#Cc1cc(-c2nc3c(F)cccc3s2)ccc1N

Out:
1. > 100 µM
2. 79.5 µM
3. > 100 µM
4. > 100 µM
5. > 100 µM
6. > 15 µM
7. 0.894 µM

Quick batch: TGI for everything below.
1. CN(Cc1cccc2ccccc12)Cc1cccc2ccccc12
2. O=[N+]([O-])c1cc(C2SCc3nc4ccccc4n32)ccc1Cl (stereo not given)
3. COc1c(Br)cc(/C=C(\C#N)c2cccnc2)cc1Br

Out:
1. > 100 µM
2. > 100 µM
3. > 100 µM

Quick batch: TGI for everything below.
1. C/C(=N\NC(=S)N1CCN(C)CC1)c1nc2ncccc2[nH]1
2. CN(C)CCNC(=O)c1cccc2[nH]c(-c3cccnc3)nc12
3. N#CC1=C(N)Oc2c(sc3c(Br)cccc23)C1c1ccc(Br)cc1 (stereo not given)

Out:
1: > 100 µM; 2: 56.5 µM; 3: 20.5 µM

Quick batch: TGI for everything below.
1. OC1[C@H](O)CN(OCc2ccccc2)C[C@@H]1O (stereo not given in full)
2. OC(c1cc(-c2ccc(Cl)cc2)nc2ccccc12)C1CCCCN1 (stereo not given)
3. O=C(c1ccccc1)[C@@H]1C[C@H](Sc2ccccc2)c2cc(Cl)ccc2N1
4. O=C1C2C(c3ccccc3)NC(c3ccccc3)C1C(c1ccccc1)NC2c1ccccc1 (stereo not given)
5. O=C(Cc1ccc(Cl)cc1)Nc1ccc2oc(-c3ccccc3)nc2c1

Out:
1. > 100 µM
2. 4.74 µM
3. 50.3 µM
4. > 100 µM
5. > 100 µM

Quick batch: TGI for everything below.
1. Cc1cc2[nH]c(=O)c3c4ccccc4cn3c2cc1C
2. CC(=O)N1C(NN(C)C)CCN1c1ccccc1 (stereo not given)
3. Cc1cc(Cc2cc(C)cc(C(C)(C)C)c2O)c(O)c(Cc2cc(C)cc(C(C)(C)C)c2O)c1

Out:
1: 31.9 µM; 2: > 10 µM; 3: 9 µM

Quick batch: TGI for everything below.
1. NCCN.NCCN.O=C([O-])CCl.O=C([O-])CCl.[Co+3].[O-][Cl+3]([O-])([O-])[O-]
2. CC(C)(C)C(=O)CP(=O)(O)O
3. COc1ccc(NC(=O)/C(=N/NC(N)=S)C2C(=O)NC(=S)NC2=O)c(OC)c1
4. COc1ccc(/C=C2\N=C(SC)N(CN3CCCCC3)C2=O)cc1
5. Cc1c2c(Cl)c3c(c(Cl)c2c(C)c2c(Cl)c4c(c(Cl)c12)C(c1ccccc1)(c1ccccc1)C4(c1ccccc1)c1ccccc1)C(c1ccccc1)(c1ccccc1)C3(c1ccccc1)c1ccccc1

Out:
1: > 100 µM; 2: > 100 µM; 3: > 100 µM; 4: > 100 µM; 5: > 100 µM
